Tested on: Z-138 non-Hodgkin lymphoma cells
assayNotes: In vitro antiproliferative activity, MTS proliferation assay
Assay type: cell-based, human
conditions: 72 h
Description: Human cancer cell lines used in this manuscript, namely Capan-1, HCT-116, NCI-H460, LN-229, HL-60, K-562, Z-138, SW620, PC3 and HeLa, were acquired from the American Type Culture Collection (ATCC, Manassas, VA, USA), while the DND-41 cell line was purchased from the Deutsche Sammlung von Mikroorganismen und Zellkulturen (DSMZ Leibniz-Institut, Germany). […]
attributeMeasured: IC50 (µM)

[
  {
    "compound": "Brc1cnc2nc(-c3ccc(C4=NCCN4)cc3)[nH]c2c1.Cl [Compound 14]",
    "studySystem": "Z-138 non-Hodgkin lymphoma cells",
    "attributeMeasured": "IC50",
    "unitSymbol": "µM",
    "testResult": 8.5
  }
]

###

Test system: RSV A Long
assayNotes: Antiviral CPE reduction assay
Format: cell-based, respiratory syncytial virus A
conditions: CPE reduction, HEL 299 cells

[
  {
    "compound": "Cn1c(-c2ccc(C#N)cc2)nc2cccnc21 [Compound 17]",
    "EC50 / µM": 79
  }
]

###

# key: entry, value: pEC50
Tested on: Influenza H1N1 (A/Ned/378/05)
assayNotes: Antiviral CPE reduction assay
Format: cell-based
conditions: Influenza A virus, MDCK cells
pEC50: −log10 of the molar value.
attributeMeasured: pEC50

[
  {
    "molecule": "CC(=O)N[C@H]1[C@H]([C@H](O)[C@H](O)CO)OC(C(=O)O)=C[C@@H]1N=C(N)N [Zanamivir, zanamivir, reference compound]",
    "studySystem": "Influenza H1N1 (A/Ned/378/05)",
    "qualifierSymbol": "=",
    "testResult": 6.89
  },
  {
    "molecule": "Cn1c(-c2ccc(C#N)cc2)nc2cccnc21 [Compound 17]",
    "studySystem": "Influenza H1N1 (A/Ned/378/05)",
    "qualifierSymbol": "<",
    "testResult": 4.00
  },
  {
    "molecule": "N#Cc1ccc(-c2nc3ncc(Br)cc3[nH]2)cc1 [Compound 8]",
    "studySystem": "Influenza H1N1 (A/Ned/378/05)",
    "qualifierSymbol": "=",
    "testResult": 4.14
  },
  {
    "molecule": "Cl.N=C(N)c1ccc(-c2nc3ncc(Br)cc3[nH]2)cc1 [Compound 10]",
    "studySystem": "Influenza H1N1 (A/Ned/378/05)",
    "qualifierSymbol": "=",
    "testResult": 4.15
  },
  {
    "molecule": "NC(=O)c1ncn([C@@H]2O[C@H](CO)[C@@H](O)[C@H]2O)n1 [Ribavirin, ribavirin, reference compound]",
    "studySystem": "Influenza H1N1 (A/Ned/378/05)",
    "qualifierSymbol": "=",
    "testResult": 4.98
  },
  {
    "molecule": "Brc1cnc2nc(-c3ccccc3)[nH]c2c1 [Compound 7]",
    "studySystem": "Influenza H1N1 (A/Ned/378/05)",
    "qualifierSymbol": "<",
    "testResult": 4.00
  },
  {
    "molecule": "CC(N)C12CC3CC(CC(C3)C1)C2 (stereo not shown) [Rimantadine, rimantadine, reference compound]",
    "studySystem": "Influenza H1N1 (A/Ned/378/05)",
    "qualifierSymbol": "=",
    "testResult": 5.36
  }
]

###

# key: entry, value: melting point

[
  {
    "chemicalStructure": "Cl.N=C(N)c1ccc(-c2nc3ncccc3[nH]2)cc1",
    "melting point": "> 300 °C"
  },
  {
    "chemicalStructure": "Cl.c1cnc2nc(-c3ccc(C4=NCCCN4)cc3)[nH]c2c1",
    "melting point": "> 300 °C"
  },
  {
    "chemicalStructure": "Brc1cnc2nc(-c3ccccc3)[nH]c2c1",
    "melting point": "> 300 °C"
  },
  {
    "chemicalStructure": "CC(C)NC(=N)c1ccc(-c2nc3ncc(Br)cc3[nH]2)cc1.Cl",
    "melting point": "> 300 °C"
  }
]

###

assayNotes: in vitro
conditions: dog
attributeMeasured: CC50

[
  {
    "compound": "Brc1cnc2nc(-c3ccccc3)[nH]c2c1 [Compound 7]",
    "testResult": "> 100 µM"
  },
  {
    "compound": "CC(C)NC(=N)c1ccc(-c2nc3ncccc3[nH]2)cc1.Cl [Compound 13]",
    "testResult": "> 100 µM"
  },
  {
    "compound": "Cn1c(-c2ccc(C#N)cc2)nc2cc(Br)cnc21 [Compound 19]",
    "testResult": "> 100 µM"
  },
  {
    "compound": "CC(C)NC(=N)c1ccc(-c2nc3ncc(Br)cc3[nH]2)cc1.Cl [Compound 16]",
    "testResult": "71.2 µM"
  },
  {
    "compound": "NC(=O)c1ncn([C@@H]2O[C@H](CO)[C@@H](O)[C@H]2O)n1 [Ribavirin, ribavirin, reference compound]",
    "testResult": "80.2 µM"
  },
  {
    "compound": "O=c1[nH]c(=O)n([C@H]2C[C@H](O)[C@@H](CO)O2)cc1/C=C/Br [BVDU, brivudine, reference compound]",
    "testResult": "> 100 µM"
  },
  {
    "compound": "Cn1c(-c2ccccc2)nc2cc(Br)cnc21 [Compound 18]",
    "testResult": "> 100 µM"
  },
  {
    "compound": "N#Cc1ccc(-c2nc3ncccc3[nH]2)cc1 [Compound 6]",
    "testResult": "> 100 µM"
  },
  {
    "compound": "Cl.c1cnc2nc(-c3ccc(C4=NCCN4)cc3)[nH]c2c1 [Compound 11]",
    "testResult": "> 100 µM"
  },
  {
    "compound": "N#Cc1ccc(-c2nc3ncc(Br)cc3[nH]2)cc1 [Compound 8]",
    "testResult": "> 100 µM"
  },
  {
    "compound": "Cl.N=C(N)c1ccc(-c2nc3ncc(Br)cc3[nH]2)cc1 [Compound 10]",
    "testResult": "> 100 µM"
  },
  {
    "compound": "Brc1cnc2nc(-c3ccc(C4=NCCN4)cc3)[nH]c2c1.Cl [Compound 14]",
    "testResult": "33.9 µM"
  },
  {
    "compound": "c1ccc(-c2nc3ncccc3[nH]2)cc1 [Compound 5, 2-Phenyl-1H-imidazo[4:5-b]pyridine]",
    "testResult": "79.2 µM"
  },
  {
    "compound": "Brc1cnc2nc(-c3ccc(C4=NCCCN4)cc3)[nH]c2c1.Cl [Compound 15]",
    "testResult": "> 100 µM"
  }
]

###

Test system: Sindbis
assayNotes: Antiviral CPE reduction assay
Type: cell-based
conditions: Sindbis virus, Huh-7, Huh7 cells
attributeMeasured: EC50

[
  {
    "compound": "CCC(CC)COC(=O)[C@H](C)N[P@](=O)(OC[C@H]1O[C@@](C#N)(c2ccc3c(N)ncnn23)[C@H](O)[C@@H]1O)Oc1ccccc1 [Remdesivir, remdesivir, reference compound]",
    "studySystem": "Sindbis",
    "testResult": "> 10 µM"
  },
  {
    "compound": "N#Cc1ccc(-c2nc3ncc(Br)cc3[nH]2)cc1",
    "studySystem": "Sindbis",
    "testResult": "> 100 µM"
  },
  {
    "compound": "Cl.N=C(N)c1ccc(-c2nc3ncc(Br)cc3[nH]2)cc1",
    "studySystem": "Sindbis",
    "testResult": "> 100 µM"
  },
  {
    "compound": "Cn1c(-c2ccc(C#N)cc2)nc2cccnc21",
    "studySystem": "Sindbis",
    "testResult": "> 100 µM"
  },
  {
    "compound": "Brc1cnc2nc(-c3ccccc3)[nH]c2c1",
    "studySystem": "Sindbis",
    "testResult": "> 100 µM"
  }
]

###

assayNotes: Cytotoxicity in virus host cell line, MTS assay
conditions: dog
attributeMeasured: CC50

[
  {
    "compound": "CC(N)C12CC3CC(CC(C3)C1)C2 (stereo not shown) [Rimantadine, rimantadine, reference compound]",
    "testResult": "> 100 µM"
  }
]

###

# key: entry, value: pEC50
Tested on: Influenza B (B/Ned/537/05)
assayNotes: Antiviral CPE reduction assay
Format: cell-based
conditions: Influenza B virus, MDCK cells
pEC50: −log10 of the molar value.

[
  {
    "compound": "Cn1c(-c2ccc(C#N)cc2)nc2cccnc21 [Compound 17]",
    "qualifierSymbol": "<",
    "pEC50": 4.00
  },
  {
    "compound": "N#Cc1ccc(-c2nc3ncc(Br)cc3[nH]2)cc1 [Compound 8]",
    "qualifierSymbol": "=",
    "pEC50": 4.25
  },
  {
    "compound": "Brc1cnc2nc(-c3ccccc3)[nH]c2c1 [Compound 7]",
    "qualifierSymbol": "<",
    "pEC50": 4.00
  },
  {
    "compound": "CC(N)C12CC3CC(CC(C3)C1)C2 (stereo not shown) [Rimantadine, rimantadine, reference compound]",
    "qualifierSymbol": "<",
    "pEC50": 4.00
  },
  {
    "compound": "CC(=O)N[C@H]1[C@H]([C@H](O)[C@H](O)CO)OC(C(=O)O)=C[C@@H]1N=C(N)N [Zanamivir, zanamivir, reference compound]",
    "qualifierSymbol": "=",
    "pEC50": 7.30
  },
  {
    "compound": "Cl.N=C(N)c1ccc(-c2nc3ncc(Br)cc3[nH]2)cc1 [Compound 10]",
    "qualifierSymbol": "=",
    "pEC50": 4.03
  },
  {
    "compound": "NC(=O)c1ncn([C@@H]2O[C@H](CO)[C@@H](O)[C@H]2O)n1 [Ribavirin, ribavirin, reference compound]",
    "qualifierSymbol": "=",
    "pEC50": 5.55
  }
]
